Here's what we have: pIC50 numbers for IRAK1 (His-TEV-IRAK1 (194-712)) (Homo sapiens (Human), UniProt P51617).
pIC50: −log10 of the molar value.

> print(dat)
                                   molecule  quantity.kind   measurement
1  CN1CCC(CNc2nc(-c3cccc(-c4cnn(C)c4)c3)ncc2-c2cnn([C@H]3CC[C@]4(CCC(=O)N4C)CC3)c2)CC1          pIC50  5.30 to 6.00

Fill in pIC50 for each of the 4 molecules listed.
1. CC(=O)NCCNc1nc(-c2cccc(-c3cnn(C)c3)c2)ncc1-c1ccn(C)n1
2. Cn1cc(-c2cccc(-c3ncc(-c4ccn(C)n4)c(NC4C5CCCC4CC(N)C5)n3)c2)cn1 (centres unmarked)
3. Cn1cc(-c2cccc(-c3ncc(-c4cnn(C)c4)c(N[C@H]4C[C@@H](CNS(C)(=O)=O)C4)n3)c2)cn1
4. Cn1cc(-c2cccc(-c3ncc(-c4cnn(C)c4)c(NCCCN4CCOC4=O)n3)c2)cn1

Result block:
["5.30 to 6.00", "6.00 to 7.00", "> 7.00", "5.30 to 6.00"]
